src = the domain aggregation screens of Martell et al. (2025)

- assay text: soluble fraction after stress (log2 fold change); higher = more stays soluble; pooled small domains, quantitative proteomics;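 note: 20 min heating vs room temperature control held 20 min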
- settings: stress: 75 degC
Binary call on soluble fraction (log2): satisfied from -2 upward, not satisfied beneath that.

> print(dat)
                             query.sequence  assigned.class
1  HMRMTTEQLMSFLKQHFPQVADNFTVRISDEGRLSVEMPVNDKHLRPGGTVSGPSMFALADVAFYLAILQ       satisfied
2  HMNGDWISARQEYYIRGLWDLASRAKDEASLQAMLQRIAGVTQIEWISKEKATKVILALRDIAKK       satisfied
3  HMSSDLSNVVKIIDTLKHKKGALLPILHQIQREIGYIPLKTIDTIAKKLQQTPAEIHGVISFYHQFRTS       satisfied
4  HMDSLSLTELRIDSASPWIGNRISDFSPYAGELVIMIIRGEETIVPNGDTIILDKDLLVIYSS   not satisfied
5  HMIESLKGILHKKDPTIAIIDVGGVRLSVNITLSTYEKLEEINSSIELLTYFNVREDAMELYG       satisfied

Request: Please tell me: is the sequence HMGDKVLIQTAQRLKKDLPFASIVSRFGGDEFLIFLPGISSTERVETIVKKTVFLFIAISTTLF at or over -2 in terms of soluble fraction (log2)?
Response: satisfied

Request: Is the recorded value of soluble fraction (log2) equal to or greater than -2 for this sequence? HMDRADIDAVDAEWVRATMERLGLRAKHIESHTGISKSTLSILLNGHRPLTRWHKIAFYYLFKHIEF
Response: not satisfied

----------
- assay text: soluble fraction after stress (log2 fold change); higher = more stays soluble; pooled small domains, quantitative proteomics
- settings: stress: 75 degC
Measured soluble fraction (log2) accompanies every entry in the list below.

> print(dat)
                             query.sequence   result
1  HMLGYGEQEREAQKYLEMHTAFQADPSLQKMYLPENQYALISKVMEMTGIKNVKSYLTPPNEL   -0.193
2  HMNDLIFSTLAEYDRDTITEIISVVDNTRGIGYEVELVRKDLIAMAAQAEARRDYLPSVIGDVEVFKRNLL    0.354
3  HMDEYGEVQALQRAGQTSEALARADRHIAAHPNDPQMRFVKANLLSAGGRAGEAETLLVQLTRD  -0.0543

# context switch: different sequence, same soluble fraction (log2)
Request: Annotate the sequence HMLTPSRVLPYLFEDSFFIDTLSLEKDQVVGFLEYIDERLPPQDLMNKSKEFELIDYLINESEAYLSQ with its measured soluble fraction (log2).
Response: -0.00122

----------
- assay text: soluble fraction after stress (log2 fold change); higher = more stays soluble; pooled small domains, quantitative proteomics
- settings: stress: 75 degC
Recorded soluble fraction (log2) values for a group of sequences are listed next.
Keep it simple and answer with nothing but the number.

Examples with their reported soluble fraction (log2) follow.
> print(dat)
                             query.sequence  numeric.value
1  HMFQPFFENLRKASIPVSLREYLTFLEGMKKGLVTYDIEAFYFLARAAMVKDERNIDKFDRAFSATFKG         -0.306
2  HMTGMEAAEFGKRIMKLRKQKGMTQSKLAEQINVSNKAISRWETGEGFPEITLLKPLAKALGTTVDELFGE         -0.334

Request: Report measured soluble fraction (log2); entry is HMIDFTHEDIERLWNAIVHYVPERQKSDMAIDFIKSLEDIGVEHDEIKASAEYDPKLEEAINTVY
Response: -0.424

Request: Fill in reported soluble fraction (log2) for this entry: HMKGTLPEMITSREEVVLKFMVNGWDAKRIASELDISVLTVRKHIANIYEKLHVQSKAEIISMAHQQKWFN
Response: -3.27

Request: Please look at this sequence and report its soluble fraction (log2): HMKIEDSNTIKLKANQAYKTHYYSEAIKLYDELLTKYEPNSEAIKLNLAHAHFKAKGFAAASKLYT
Response: 0.0472

Request: Identify measured soluble fraction (log2) corresponding to HMGPVRDLGLLESAAHRPTTALWGRDVYATIEKKAAALLDSLVRDRPLADGNKRLGWLAALV
Response: 0.291

----------
- assay text: soluble fraction after stress (log2 fold change); higher = more stays soluble; pooled small domains, quantitative proteomics
- settings: stress: 75 degC
In this section, each of the sequences is paired with its reported soluble fraction (log2).

> print(dat)
                             query.sequence  result
1  HMQISDSSLIAKTVATVILENPEAVSDYLGGKHSVVRFMVGQIMKKTQGKANPKMATEMLETALNDL   -1.88
2  HMREEMYGLIGFITTSEVTDTFGQMEIKLENEPEMRINVRTNPGESLARGDAAKIISFNNSNGTFLVELTK  -0.921
3  HMVSINETAFIQIKNSSATEIKEKITALKLDELKNVTITADIRTNKLIVVGPKATINKIQELVIELDTES  -0.174

Request: Quickly give me recorded soluble fraction (log2) for HMSAETREELVGREGVSLTDLRPSGFALFGQEKIDVVSESEFIEEGTSVRIVSVEGSRHIVRAKR
Response: -0.0724

----------
Attribute: soluble fraction (log2)
- assay text: soluble fraction after stress (log2 fold change); higher = more stays soluble; pooled small domains, quantitative proteomics
- settings: stress: 75 degC
Please reply with the number alone, leaving off any unit.

Examples with answers:
> print(dat)
                             query.sequence  numeric.value
1  HMGPAAGVVEKYNLAHLSTGEMIRKEIAEGSDFGKMAAGIINKGELLSDEFVVALIENSIEHHKNVDGFLF         -0.195
2  HMDMPLIGTAIRGWGIISPAQQETLIKMSILTVEDLAAINDEGIKRIGMGGLDLKNKAKAWLLQLK           -2.2
3  HMDDPITVAYRETEDAIAQVQREGFPVEMPPANSYIRRIQHELAGRFNLDSESYGDEPERRVRIRPQQ         -0.107

Query sequence follows.
Request: Supply reported soluble fraction (log2) belonging to this sequence: HMKNTIPVPHIIGLSEQEARETLERAGLQLNVIKTEPNTKYESGQVTDTNPNEGIKVPKGTIVNVVLADS
Response: -0.0118

----------
- assay text: soluble fraction after stress (log2 fold change); higher = more stays soluble; pooled small domains, quantitative proteomics
- settings: stress: 75 degC
readout kind: soluble fraction (log2)
Please state the value as a number alone, without comment.

Request: For HMDKFKDVGARIREARKVQKLSQADLAERLQISTSHMSDIENGKKNIGLDIFMRLTEALQVSADWLL , write its soluble fraction (log2).
Response: -0.437

Request: Return soluble fraction (log2) (reported value) for this sequence: HMQKITPDNWTYIRSLIRQKWSPDQIDQWLKKHPDVGFTVSRETIYQYVKEDRQKDGDLYLSLRRAGKSY
Response: -2.18

Request: Entry HMGDVPESLVEKAGHSINAKIISAWGMTETGASTMTRPQDDPERAIYSDGVVLPLMDVRVVNDAGLA needs its soluble fraction (log2) filled in; supply it.
Response: -0.167

----------
- assay text: soluble fraction after stress (log2 fold change); higher = more stays soluble; pooled small domains, quantitative proteomics
- settings: stress: 75 degC
readout kind: soluble fraction (log2)
Hey, just send me the number, nothing else.

> print(dat)
                             query.sequence  numeric.value
1  HMLPGWMETKFTANVSENTKNRTLEEHVLKMLNNKESAAEFIIFLHEKMMSVSGQVFQLDSR         -0.013
2  HMSDHYEVLGVDRNATDDQIKKAYRRLARELHPDVNDAPESQEKFKLVTHAYEVLSDPDERRKYDMG        -0.0229
3  HMVSRVTTPGVVGKTWQETKQILKQADLTVGSLTRDGKDVTPADGDLVTAQNPSAGQAIVRGSSVDLTFDK         0.0104

Request: Please give the documented soluble fraction (log2) of HMEDKIIVTVPGEYHLERIDRFLAANLEEDLSRSLIQRYIRENLITVNGEAVRANYKVKTDDEILITFPQ
Response: -0.842

Request: // fetch soluble fraction (log2) given entry HMWQKGEPAITGLKRISKPGLRIYSKNDELPIVYGNRGIAVISTNKGVMTGIEAKRSGVGGEVLFYV
Response: -0.112

Request: Consider the sequence HMAEAPGSVELLAERLRPWWEIHGGEWGSKTKALRFLFGDQAPVAGSYWRALEAAIAQIESTT . State its measured soluble fraction (log2).
Response: -0.692

Request: // fetch soluble fraction (log2) given entry HMSRYAFEGNVVRLNQKDFDSWKALFTNIDLVSELTRLDIEFTHDKPKNWFSTASAKLNYQNKNAY
Response: -2.51

Request: # return recorded soluble fraction (log2) for input HMTTIPAGRQQYILSLIRREGTVTVSRLAQELEVSELTIRRDLDQMAARNLVERTHGGATERR
Response: -1.53
